These entries and their values trace back to paper PMC12935787.

Reported concentration at 8 h values are given for each entry in this list.
# assay_name: Clinical pharmacokinetics, plasma LC-MS/MS after single oral dose of AP capsules
# Assay type: in vivo, human (healthy volunteers)
# measurement_setup: human, plasma, oral, 2000 mg, S2; 8.00 h; 2000 mg AP capsules; read-out: Plasma concentration
# Experimental: The protocol was published (Tee et al. [2022]). Seven calibrators ranging from 1, 2, 5,10, 20, 50, and 100 ng mL^−1 were prepared. […] Pharmacokinetic parameters were determined from plasma samples (5 subjects, 15 time points) analyzed via LC–MS/MS (Shimadzu 8060NX). […]

C=C1CC[C@@H]2[C@](C)(CO)[C@H](O)CC[C@@]2(C)[C@@H]1C/C=C1/C(=O)OC[C@H]1O [andrographolide] ... 0 ng/mL
C=C1CC[C@@H]2[C@](C)(CO)[C@H](O)CC[C@@]2(C)[C@@H]1CCC1=CCOC1=O [14-deoxyandrographolide] ... 0 ng/mL

Then this compound:
Requested field: concentration at 8 h. Item: C=C1CC[C@@H]2[C@](C)(CO[C@@H]3O[C@H](CO)[C@@H](O)[C@H](O)[C@H]3O)CCC[C@@]2(C)[C@@H]1CCC1=CCOC1=O [neoandrographolide]
1.69 ng/mL
